We begin with a simple list: items and their reported melting point.

Worked cases, answers included:
INSERT INTO measurements (molecule, reported_value) VALUES
  ('COc1cc2ccncc2cc1O', '159 to 161 °C'),
  ('CCOC(=O)c1sc2nc(C)nn2c1C', '87 to 89 °C'),
  ('Nc1ccc(S(=O)(=O)C2CCCC2)cc1', '113 to 115 °C'),
  ('Nc1nc(-c2ccc(Cl)s2)ns1', '151 to 153 °C'),
  ('COc1ccc2c(c1)OCC2CC(=O)O (configuration not stated)', '94 to 96 °C'),
  ('NCCNC(CC(=O)O)C(N)=O (configuration not stated)', '161 to 163 °C');

Query string: Query (molecule): `Cc1ccc(/C=C/C(=O)O)c(C)c1` ; field requested: melting point
Result string: 182 to 184 °C

Query string: Also `O=C(NCCc1ccc(O)cc1)c1ccc(Cl)cc1` , if possible.
Result string: 168 to 170 °C

Query string: Also `O=C(O)C=Cc1ccc(Cl)nc1` , if possible.
Result string: 209 to 211 °C

Query string: Also `O=C(O)c1ccc(N2CCCS2(=O)=O)cc1` , if possible.
Result string: 247 to 249 °C

Query string: Also `Cc1cc(Br)cc(C)c1N1CCCC1=O` , if possible.
Result string: 103 to 105 °C

Query string: Also `COCCN(C(C)=O)c1nc(CCl)cs1` , if possible.
Result string: 98 to 100 °C

Query string: Also CC(C)(C)C1CCc2sc(C(=O)O)cc2C1 (configuration not stated) , if possible.
Result string: 169 to 171 °C

Query string: Also `COc1ccc(C=O)cc1OCc1ccc([N+](=O)[O-])cc1` , if possible.
Result string: 109 to 111 °C

Query string: Also COC(=O)C1=NN(c2cccc(C(=O)O)c2)C(=O)C1CCO (configuration not stated) , if possible.
Result string: 211 to 213 °C

---

measured property: melting point

Worked cases, answers included:
INSERT INTO measurements (molecule, reported_value) VALUES
  ('CCc1ccc(C(=O)O)cc1CC', '100 to 102 °C'),
  ('O=C(CCl)Nc1cc(C2CC2)nn1-c1ccccc1', '120 to 122 °C'),
  ('O=c1[nH]c2cc(F)c(F)cc2[nH]1', '332 to 334 °C'),
  ('COC(=O)c1ccc(Oc2ccc(Cl)cc2N)cc1', '83 to 85 °C'),
  ('Cc1cccc(C)c1C(C)O (configuration not stated)', '59 to 61 °C'),
  ('Nc1cccnc1OCc1ccccc1', '51 to 53 °C');

Query string: Query (molecule): `O=C(O)COc1ccc(-c2ccccc2)cc1` ; field requested: melting point
Result string: 195 to 197 °C

---

measured property: melting point

Worked cases, answers included:
INSERT INTO assay_data (molecule, reported_value) VALUES
  ('O=C1Nc2cc(F)cc(F)c2C1=O', '229 to 231 °C'),
  ('Cc1cc(Br)c(S(=O)(=O)Cl)c(Br)c1', '124 to 126 °C'),
  ('Nc1c(NCCCO)c(=O)[nH]c(=O)n1Cc1ccccc1', '155 to 157 °C'),
  ('Cc1c(N)cccc1S(=O)(=O)NC1CC1', '111 to 113 °C'),
  ('CS(=O)(=O)c1ccc(C#N)cc1F', '146 to 148 °C');

Query string: Query (molecule): `Clc1c(Br)ccc2ccccc12` ; field requested: melting point
Result string: 51 to 53 °C

Query string: Also `O=C(Nc1cccc(O)c1)C1CC1` , if possible.
Result string: 184 to 186 °C

Query string: Also `COC(=O)c1ccc(C(=O)O)cn1` , if possible.
Result string: 210 to 212 °C

Query string: Also `NCCNC(=O)c1ccc(Br)cc1` , if possible.
Result string: 38 to 40 °C

Query string: Also `Cc1nc(Cl)c2c3c(sc2n1)CCC3` , if possible.
Result string: 91 to 93 °C

---

We begin with a simple list: items and their reported melting point.

Worked cases, answers included:
INSERT INTO measurements (compound, measured_property, reported_value) VALUES
  ('Cc1ccc(C(C)C(O)C(=O)O)cc1 (centres undefined)', 'melting point', '111 to 113 °C'),
  ('NC(=O)NCCCCCC(=O)O', 'melting point', '175 to 177 °C');

Query string: Query (compound): `CS(=O)(=O)c1cccc(Cl)c1C(=O)O` ; field requested: melting point
Result string: 147 to 149 °C

Query string: Also `Cc1ccc(C(=O)O)cc1NC(=O)Cc1ccncc1` , if possible.
Result string: 294 to 296 °C

Query string: Also `Cc1nc2sccn2c1C=O` , if possible.
Result string: 94 to 96 °C

Query string: Also `NC(=O)C1(N2CCNCC2)CCCC1` , if possible.
Result string: 138 to 140 °C

---

measured property: melting point

Worked cases, answers included:
INSERT INTO assay_data (molecule, reported_value) VALUES
  ('COC(=O)CCNc1ncccc1[N+](=O)[O-]', '65 to 67 °C'),
  ('O=C(O)c1ccc2nnc(C3CC3)n2c1', '290 to 292 °C'),
  ('O=Cc1cn(Cc2cccnc2)nn1', '97 to 99 °C'),
  ('CC(C)(C)Sc1ccc(C#N)nc1', '60 to 62 °C'),
  ('O=Cc1ccc(-c2ccc(C(F)(F)F)cc2)o1', '106 to 108 °C'),
  ('O=C1CC2(CCSC2)C(=O)O1 (centres undefined)', '83 to 85 °C');

Query string: Query (molecule): CC(C)CC(C)(N)C(N)=O (centres undefined) ; field requested: melting point
Result string: 71 to 73 °C

Query string: Also `O=c1ccnc(-c2ccccc2)[nH]1` , if possible.
Result string: 204 to 206 °C

Query string: Also `CCOc1ccccc1CCC(=O)O` , if possible.
Result string: 70 to 72 °C

---

We begin with a simple list: items and their reported melting point.

Worked cases, answers included:
INSERT INTO measurements (molecule, reported_value) VALUES
  ('Nc1ccc(S(=O)(=O)Nc2nncs2)cc1', '211 to 213 °C'),
  ('Nc1ccc(S(=O)(=O)N2CCCC2)cc1', '164 to 166 °C'),
  ('O=S(=O)(c1ccccc1O)C(F)(F)F', '47 to 49 °C');

Query string: Query (molecule): `NC(=O)c1ccc(-c2nc(CCl)cs2)cc1` ; field requested: melting point
Result string: 177 to 179 °C

Query string: Also CC(N)(C(=O)O)c1ccc(Cl)cc1 (stereo unspecified) , if possible.
Result string: 297 to 299 °C

Query string: Also `Cc1ccc(O)c(S(=O)(=O)N2CCNCC2)c1` , if possible.
Result string: 187 to 189 °C

Query string: Also COC(=O)C(C)Oc1ccc(F)cc1Br (stereo unspecified) , if possible.
Result string: 38 to 40 °C

Query string: Also `CC(C)(C)C(=O)COc1ccc([N+](=O)[O-])cc1Cl` , if possible.
Result string: 114 to 116 °C

Query string: Also CC(C)NC(=O)C(C)Cl (stereo unspecified) , if possible.
Result string: 89 to 91 °C

---

measured property: melting point

INSERT INTO measurements (molecule, reported_value) VALUES
  ('Nc1cccc2c1C(=O)N(Cc1ccccc1)C2=O', '147 to 149 °C'),
  ('O=C(O)c1cccc(Oc2nccs2)c1', '102 to 104 °C'),
  ('O=C(O)CCNc1ccccc1', '56 to 60 °C');

Query string: Query (molecule): `CC(=O)Nc1nc(CCl)cs1` ; field requested: melting point
Result string: 159 to 161 °C

Query string: Also CC(C)(C)OC(=O)N1CCC2(C1)NC(=O)NC2=O (centres undefined) , if possible.
Result string: 214 to 216 °C

Query string: Also `COC(=O)c1c(C2CC2)csc1N` , if possible.
Result string: 72 to 74 °C

Query string: Also `COC(=O)c1cc([N+](=O)[O-])c(C)cc1C` , if possible.
Result string: 57 to 59 °C

Query string: Also `O=C1CCSc2cc(F)c(F)cc21` , if possible.
Result string: 93 to 95 °C

Query string: Also `CCCNC(=O)c1ccccc1N` , if possible.
Result string: 206 to 208 °C

Query string: Also `COCC(N)=O` , if possible.
Result string: 86 to 88 °C

Query string: Also `CN1CCN(S(=O)(=O)c2ccc(Cl)c([N+](=O)[O-])c2)CC1` , if possible.
Result string: 276 to 278 °C

All figures here come from a melting point compilation (Tetko et al.).
